# Tested on: DU-145
# TEST_NAME: Cytotoxicity against human DU145 cells assessed as growth inhibition by MTS assay
# Assay type: functional, cell-based
# TEST_CONDITIONS: Homo sapiens, DU-145; read-out: IC50
I'd be grateful if you could share measured IC50 for these entries.

• Oc1cccn(Cc2cn(-c3ccccc3)nn2)c1=S = > 20 µM

Now consider a different compound.
[Q] For the compound shown here, `CN(C)c1ccc(-c2ccc(Cn3cccc(O)c3=S)cc2)cc1` , give the reported IC50.
[A] > 20 µM
